biological target: human KHK-A (Homo sapiens (Human)); test: KHK Biochemical Assay (IC50), ADP-Glo, KHK-A; details: ADP-Glo; average of at least two separate assays
Sequence (P50053 other isoform, or with tags, fused parts or gaps): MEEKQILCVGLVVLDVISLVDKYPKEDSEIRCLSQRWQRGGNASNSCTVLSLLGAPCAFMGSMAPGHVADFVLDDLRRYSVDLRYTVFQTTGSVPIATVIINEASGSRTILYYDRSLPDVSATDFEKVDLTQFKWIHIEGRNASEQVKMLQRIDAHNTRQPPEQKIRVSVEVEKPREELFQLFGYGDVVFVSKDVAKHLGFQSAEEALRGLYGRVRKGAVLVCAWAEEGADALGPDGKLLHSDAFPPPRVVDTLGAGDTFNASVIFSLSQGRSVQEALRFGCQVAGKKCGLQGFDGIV
property name: pIC50
Note: pIC50 values are expressed as the negative base-10 logarithm of concentration in M.

Task: Fill blank: measured pIC50 of the molecule C[C@H]1CCN1c1nc2c(c(-c3ccc4c(N)nc(N)nc4c3)n1)CCC2 [Example 147] is ____.
Output: 7.91

Task: pIC50 for C[C@H]1CCN1c1nc2c(c(-c3ccc(C(N)=O)c(F)c3)n1)CCC2 [Example 305] ?
Output: 7.21

Task: Dear colleague, I am looking for the recorded pIC50 of the following molecule: C[C@H]1[C@H](F)CN1c1nc2c(c(-c3ccc4c(c3)CCNC4=O)n1)CCC2 [Example 289]
Output: 7.24

Task: Bench note: what pIC50 did Cc1cc(-c2nc(N3CC[C@@H]3C)nc3c2CCC3)sn1 [Example 327] show?
Output: 7.01

* * *

Collected IC50 values appear next to each entry.
target: human KHK-C (Homo sapiens (Human), UniProt P50053); experiment: KHK Biochemical Assay (IC50), ADP-Glo, KHK-C; conditions: ADP-Glo; average of at least two separate assays
Supply the numeric figure in nM, leaving out any unit text.

Task: Which IC50 reading was recorded for the molecule COc1cc(-c2nc(N3CC[C@@H]3C)nc3c2CCC3)ccc1C(N)=O ?
Output: 17.4

Task: Look up IC50 for this molecule: C[C@H]1CCN1c1nc2c(c(-c3cc4c(s3)C(=O)NC(C)(C)N4)n1)CCC2
Output: 27.7

Task: Look up IC50: C[C@H]1CCN1c1nc2c(c(-c3cccc(S(C)(=N)=O)n3)n1)CCC2 (stereo partly shown)
Output: 224

Task: Fill blank: measured IC50 of the molecule Cc1cc(-c2nc(N3CC[C@@H]3C)nc3c2CCC3)on1 is ____.
Output: 228

Task: Look up IC50: CC(=O)N1C[C@H](C(N)=O)[C@@H](c2cccc(-c3nc(N4CC[C@@H]4C)nc4c3CCC4)c2)C1 (relative stereo)
Output: 116

Task: Need IC50 of O=C1N[C@@]2(CO1)COc1cc(-c3nc(N4CCC4C(F)F)nc4c3CCC4(F)F)ccc12 (stereo partly shown) , thanks.
Output: 0.6

* * *

target: human KHK-C (Homo sapiens (Human)); experiment: KHK Biochemical Assay (IC50), ADP-Glo, KHK-C; details: average of at least two separate assays
property name: pIC50
In plain terms, pIC50 is the concentration in mol/L turned into minus its base-10 logarithm.

Worked examples follow.
compound	experimental system	property name	numeric value
COc1c(F)cc(-c2nc(N3C[C@@H](O)[C@@H]3C)nc3c2CCC3(F)F)cc1S(C)(=N)=O (stereo partly drawn) [Example 535]	human KHK-C (Homo sapiens (Human))	pIC50	7.80
C[C@H]1[C@H](O)CN1c1nc(-c2ccc(C3(N)CS(=O)(=O)C3)cc2)c2c(n1)C(F)(F)CC2 [Example 491]	human KHK-C (Homo sapiens (Human))	pIC50	8.70
COc1c(C)cc(-c2nc(N3C[C@@H](O)[C@@H]3C)nc3c2CCC3(F)F)cc1S(C)(=N)=O (stereo partly drawn) [Example 722]	human KHK-C (Homo sapiens (Human))	pIC50	8.30

Task: What measured pIC50 is associated with C[C@H]1[C@H](O)CN1c1nc(-c2ccc3c(c2)[C@@H](NS(C)(=O)=O)CC3)c2c(n1)C(F)(F)CC2 (single isomer, unassigned) [Example 622] on human KHK-C (Homo sapiens (Human))?
Output: 8.82

Task: Record lookup: for human KHK-C (Homo sapiens (Human)), what pIC50 belongs to C[C@H]1CCN1c1nc2c(c(-c3ccc4[nH]c(=O)[nH]c(=O)c4c3)n1)CCC2 [Example 425] ?
Output: 7.50

Task: human KHK-C (Homo sapiens (Human)) / pIC50 / COc1ccc(-c2nc(N3C[C@H](F)[C@@H]3C)nc3c2CCC3(F)F)cc1[S@@](C)(=N)=O [Example 562] : value?
Output: 8.85

* * *

biological target: KHK-C expressed in NRK-52E cells (Homo sapiens (Human), UniProt P50053); assay: KHK-C Cell-based Assay (EC50), NRK CTG, fructose-mediated ATP-depletion
Sequence (P50053 whole entry): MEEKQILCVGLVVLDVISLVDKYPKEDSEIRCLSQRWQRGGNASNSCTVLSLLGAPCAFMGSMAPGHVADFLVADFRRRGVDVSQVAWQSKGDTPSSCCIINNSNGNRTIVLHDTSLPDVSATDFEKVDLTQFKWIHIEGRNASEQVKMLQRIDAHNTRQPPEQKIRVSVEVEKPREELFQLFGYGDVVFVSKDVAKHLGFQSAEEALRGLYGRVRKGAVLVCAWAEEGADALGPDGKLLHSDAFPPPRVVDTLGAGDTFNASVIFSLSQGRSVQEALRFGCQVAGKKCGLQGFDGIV
pEC50: −log10 of the molar value.
Record Met whenever pEC50 is at 7 or higher; record Not met when lower.

compound	cat
C[C@H]1CCN1c1nc2c(c(-c3cscn3)n1)CCC2	Not met
C[C@H]1CCN1c1nc2c(c(-c3ccc(C(N)C(F)(F)F)cc3)n1)CCC2 (stereo in doubt)	Not met
COC(=O)[C@@H]1C[C@@]12C(=O)Nc1ccc(-c3nc(N4CC[C@@H]4C)nc4c3CCC4)cc12 (racemic)	Not met
C[C@H]1[C@H](O)CN1c1nc(-c2ccc3c(c2)OCCNC3=O)c2c(n1)C(F)(F)CC2	Met
C[C@H]1[C@H](F)CN1c1nc(-c2ccc(C3(N)COC3)cc2)c2c(n1)C(F)(F)CC2	Met

Task: Is pEC50 for C[C@H]1CCN1c1nc2c(c(-c3cccc(C4(C(=O)O)CC4)c3)n1)CCC2 at or above 7?
Output: Not met

Task: Say whether C[C@H]1[C@H](F)CN1c1nc2c(c(-c3ccc4c(c3)C(=O)N(C)C4)n1)CCC2 shows pEC50 of 7 or more.
Output: Met

Task: hey, is pEC50 for this one >= 7? C[C@H]1CCN1c1nc2c(c(-c3ccc(C4(NC(=O)OC(C)(C)C)CCC4)cc3)n1)CCC2
Output: Not met

Task: Would you say Cc1cc(-c2nc(N3C[C@@H](O)[C@@H]3C)nc3c2CCC3(F)F)ccc1C1(N)COC1 shows pEC50 at minimum 7?
Output: Met

* * *

target: human KHK-A (Homo sapiens (Human)); assay: KHK Biochemical Assay (IC50), ADP-Glo, KHK-A; details: ADP-Glo; average of at least two separate assays
// boundary case: IC50 equal to 70 nM maps to Condition not met; strictly smaller maps to Condition met

A selection of reference data follows.
compound	cat
C[C@H]1CCN1c1nc2c(c(-c3ccc(C(=O)NCCO)cc3)n1)CCC2	Condition met
C[C@H]1[C@H](O)CN1c1nc2c(c(-c3cccc([C@H]4C[C@@H]4C(=O)O)c3)n1)CCC2 (single isomer, unassigned)	Condition met
COC(=O)N[C@@H]1COc2cc(-c3nc(N4C[C@@H](O)[C@@H]4C)nc4c3CCC4(F)F)cc(OC)c21 (single isomer, unassigned)	Condition not met
C[C@H]1[C@H](O)CN1c1nc2c(c(-c3cccc(CNS(C)(=O)=O)c3)n1)CCC2	Condition met

Pending compound:
Task: I wonder whether C[C@H]1CCN1c1nc2c(c(-c3cc4c(N)n[nH]c4cn3)n1)CCC2 has IC50 below 70 nM. Can you tell?
Output: Condition not met

* * *

target: human KHK-A (Homo sapiens (Human)); assay: KHK Biochemical Assay (IC50), ADP-Glo, KHK-A; conditions: average of at least two separate assays
Item-by-item account of log10 IC50
// units: nM (pre-log); metric: IC50; scale: log10

Check out these entries, answers already filled in.
molecule	property name	numeric value
C[C@H]1[C@@H](F)CN1c1nc(-c2ccc(C3(N)COC3)cc2)c2c(n1)C(F)(F)CC2 (stereo in doubt) [Example 469]	log10 IC50	0.83
C[C@H]1[C@H](O)CN1c1nc(-c2ccc3c(c2)CCC32COCC(=O)N2)c2c(n1)C(F)(F)CC2 (stereo partly shown) [Example 548]	log10 IC50	0.86
C[C@H]1CCN1c1nc2c(c(-c3cc(C(N)=O)c4ccccc4c3)n1)CCC2 [Example 423]	log10 IC50	1.82

Task: Would you mind telling me what log10 IC50 value was observed for NC1(c2ccc(-c3nc(N4CC[C@@H]4C(F)F)nc4c3CCC4(F)F)cc2)COC1 (single isomer, unassigned) [Example 687] ?
Output: 0.45

Task: Given the entry CS(=O)(=O)N[C@H]1COc2cc(-c3nc(N4CC[C@@H]4C(F)F)nc4c3CCC4(F)F)ccc21 [Example 545] , report its measured log10 IC50.
Output: 0.60

Task: Could you share which log10 IC50 value was measured for C[C@H]1[C@H](O)CN1c1nc(-c2ccc3c(c2)OCCC32NC(=O)NC2=O)c2c(n1)C(F)(F)CC2 (stereo partly shown) [Example 551] ?
Output: 0.71

Task: Item C[C@H]1CCN1c1nc2c(c(-c3ccc4c(c3)[C@]3(C[C@H]3C(=O)O)C(=O)N4)n1)CCC2 (racemic) [Example 408] has what recorded log10 IC50?
Output: 2.20

Task: Name the reported log10 IC50 value associated with the molecule C[C@H]1[C@H](O)CN1c1nc(-c2ccc3c(c2)OC[C@]32CN(C)C(=O)N2)c2c(n1)C(F)(F)CC2 (single isomer, unassigned) [Example 701]
Output: 1.50

Task: Entry C[C@H]1[C@H](O)CN1c1nc(-c2ccc3c(c2)OCC32NC(=O)N(CC(F)(F)F)C2=O)c2c(n1)C(F)(F)CC2 (stereo partly shown) [Example 699] has what log10 IC50?
Output: 1.95

Task: Record request: log10 IC50 value, item C[C@H]1[C@H](O)CN1c1nc(-c2ccc3c(c2)OC[C@@]32COC(=O)N2)c2c(n1)C(F)(F)CC2 (single isomer, unassigned) [Example 483]
Output: 0.66
